# system-name: human DGAT2 (hDGAT2) (Homo sapiens (Human))
# Sequence (Q96PD7 whole entry): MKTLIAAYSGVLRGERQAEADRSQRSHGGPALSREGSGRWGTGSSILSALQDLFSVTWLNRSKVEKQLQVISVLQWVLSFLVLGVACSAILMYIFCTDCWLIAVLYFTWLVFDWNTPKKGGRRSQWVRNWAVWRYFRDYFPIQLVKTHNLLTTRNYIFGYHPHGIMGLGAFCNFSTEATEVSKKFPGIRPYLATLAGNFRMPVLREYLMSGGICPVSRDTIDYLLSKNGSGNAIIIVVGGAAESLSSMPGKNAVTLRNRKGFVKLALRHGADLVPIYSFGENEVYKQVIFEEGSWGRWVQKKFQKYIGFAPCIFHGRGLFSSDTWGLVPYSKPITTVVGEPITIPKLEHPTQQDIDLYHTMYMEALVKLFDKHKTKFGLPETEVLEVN
# experimental-details: DGAT2 enzymatic activity assay (13C18-triolein formation, LC/MS/MS)
# Type: biochemical
# condition-set: hDGAT2 Sf-9 membrane prep, 25 μM diolein, 5 μM 13C oleoyl-CoA; read-out: Human DGAT2 IC50
quantity-measured: IC50 (nM)

The examples below pair each entry with its known result.
                                   compound  unit_descriptor  reading
0  CC(O)C(C)n1nc(-c2cccc(OC(F)F)c2)c2ncc(C(=O)NC3(C)CS(=O)(=O)C3)cc21 (single isomer, unassigned) [Example 78d]               nM       47
1  CC(O)Cn1nc(-c2cccc(OC(F)F)c2)c2ncc(C(=O)NC3(C)CS(=O)(=O)C3)cc21 (single isomer, unassigned) [Example 68b]               nM      179
2  CC1(NC(=O)c2cnc3c(-c4cccc(OC(F)F)c4)nn(C4CCOCC4F)c3c2)CS(=O)(=O)C1 (single isomer, unassigned) [Example 75b]               nM        9
3  N[C@H]1CCC[C@H]1NC(=O)c1cnc2c(-c3cccc(OC(F)F)c3)cn(-c3ncc(F)cn3)c2c1               nM      189

[a] CCOc1cc(-c2nn(C(C)C)c3cc(C(=O)NC4(C)CS(=O)(=O)C4)cnc23)c(F)cn1
[b] CC1(NC(=O)c2cnc3c(-c4cccc(OC(F)F)c4)nn(C4CCOC(C(F)(F)F)C4)c3c2)CS(=O)(=O)C1 (single isomer, unassigned) [Example 76b]
[c] CC(C)n1nc(-c2cccc(OC(F)F)c2)c2ncc(C(=O)NC(C)(C)C(C)O)cc21 (single isomer, unassigned) [Example 46b]
[d] CC(C)n1nc(-c2cccc(OC(F)F)c2)c2ncc(C(=O)NC(CO)C(F)(F)F)cc21 (racemic)
[e] CC1(NC(=O)c2cnc3c(-c4cccc(OC(F)F)c4)nn(C4CCOC(C)(C)C4)c3c2)CS(=O)(=O)C1 (single isomer, unassigned) [Example 77a]
Rank order required: IC50, descending. Write the labels in rank order as requested.
b, e, d, a, c
(b: 211 nM, e: 140 nM, d: 41 nM, a: 27 nM, c: 13 nM)

Reference source for all entries: patent US11787810B2
